pKi: −log10 of the molar value. Where a SMILES comes first, the peptide text is derived from it. The star is where a group is joined. Valol = CC(C)[C@@H](CO)N*
Here we list compounds with their recorded pKi when tested on Somatostatin receptor type 5 (Homo sapiens, UniProt P35346).
Sequence (P35346 whole entry): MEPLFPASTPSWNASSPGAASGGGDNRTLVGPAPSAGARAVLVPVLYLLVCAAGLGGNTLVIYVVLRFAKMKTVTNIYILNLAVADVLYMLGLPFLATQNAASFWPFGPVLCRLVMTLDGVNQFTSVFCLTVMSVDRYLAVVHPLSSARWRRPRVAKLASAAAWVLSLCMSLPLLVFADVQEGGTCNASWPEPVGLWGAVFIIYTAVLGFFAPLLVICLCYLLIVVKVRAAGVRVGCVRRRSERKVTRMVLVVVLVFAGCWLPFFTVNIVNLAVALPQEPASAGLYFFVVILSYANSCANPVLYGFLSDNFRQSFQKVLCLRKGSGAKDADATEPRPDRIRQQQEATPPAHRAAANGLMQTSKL

# count of solved cases: 2
| compound | assayed-target | pKi |
| --- | --- | --- |
| NCCCCN1CCCCCOCc2cn(nn2)C[C@H]2O[C@H](CC1)[C@H](OCc1cccc3ccccc13)[C@@H](O)[C@H]2O | Somatostatin receptor type 5 (Homo sapiens, UniProt P35346) | < 4.00 |
| CC(=O)N[C@@H](Cc1ccccc1)C(=O)N[C@@H](C)C(=O)N[C@@H](Cc1ccccc1)C(=O)N[C@@H](Cc1c[nH]c2ccccc12)C(=O)N[C@@H](CCCCN)C(=O)N[C@@H](CC(=O)O)C(=O)N[C@@H](C)C(=O)N[C@H](CO)C(C)C (Ac-FAFWKDA-Valol) | Somatostatin receptor type 5 (Homo sapiens, UniProt P35346) | < 4.00 |

Entry NCCCCCOC[C@@H]1[C@@H](O)[C@H](O)[C@@H](O)CN1CCc1c[nH]c2ccccc12 has what pKi? < 4.00

FYI, the data here is from ChEMBL document CHEMBL4330062.
